Measured glomerular width of individual entries
- Test system: Danio rerio Tg(wt1b:EGFP) embryo, pronephros
- assay: glomerular width (mean of left and right), fold change vs DMSO control; higher = wider glomerulus
- test_context: 25 µM; exposure: 24-48 hpf
Counter-ions that a name gives are not always drawn.
property_name: glomerular width

compound="CN(C/C=C/c1ccccc1)Cc1cccc2ccccc12 [Naftifine hydrochloride]" readout_number=0.96
compound="CC(=O)Nc1ccc(O)cc1 [Acetaminophen]" readout_number=0.987
compound="CCCCc1oc2ccccc2c1C(=O)c1cc(I)c(OCCN(CC)CC)c(I)c1 [Amiodarone hydrochloride]" readout_number=0.862
compound="c1ccc(CC2=NCCN2)cc1 [Tolazoline hydrochloride]" readout_number=1.03
compound="CCN1CC(CCN2CCOCC2)C(c2ccccc2)(c2ccccc2)C1=O (stereo not drawn) [Doxapram hydrochloride]" readout_number=0.981
compound="Cn1cnc([N+](=O)[O-])c1Sc1ncnc2[nH]cnc12 [Azathioprine]" readout_number=1.02
compound="C[C@@H]1[C@H](O)[C@@H](C)/C=C/C=C/C=C/C=C/C=C/C=C/C=C/[C@H](O[C@@H]2O[C@H](C)[C@@H](O)[C@H](N)[C@@H]2O)C[C@@H]2O[C@](O)(C[C@@H](O)C[C@@H](O)[C@H](O)CC[C@@H](O)C[C@@H](O)CC(=O)O[C@H]1C)C[C@H](O)[C@H]2C(=O)O [Amphotericin B]" readout_number=0.907
compound="CCC1(C)CC(=O)NC1=O (stereo not drawn) [Ethosuximide]" readout_number=1.07

Recorded values, source the supplement of paper PMC7366291.
